Each entry below lists one item and its recorded self-splicing fitness (ln) value.
Test: self-splicing fitness, log relative to wild type (ln ratio); higher = more splicing; Tetrahymena group I intron in knt gene, E. coli kanamycin selection, DiMSum; sequences stand for … in CUCUCU…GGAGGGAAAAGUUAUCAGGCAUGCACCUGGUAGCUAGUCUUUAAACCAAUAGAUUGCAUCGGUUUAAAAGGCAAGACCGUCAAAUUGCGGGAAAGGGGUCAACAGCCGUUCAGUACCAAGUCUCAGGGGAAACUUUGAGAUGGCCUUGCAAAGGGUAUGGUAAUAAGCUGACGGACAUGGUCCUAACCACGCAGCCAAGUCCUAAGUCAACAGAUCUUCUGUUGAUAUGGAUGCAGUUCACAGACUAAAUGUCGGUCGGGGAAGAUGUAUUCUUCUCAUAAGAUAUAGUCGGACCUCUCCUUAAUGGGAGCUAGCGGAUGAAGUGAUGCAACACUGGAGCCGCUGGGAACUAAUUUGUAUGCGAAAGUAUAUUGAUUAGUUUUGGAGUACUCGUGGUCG;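 also: selection with 25 µg/mL kanamycin versus none on LB agar overnight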
Settings: 30 °C
A bare number is all that is needed in reply.

{"sequence": "CUCUAGCAAUAUUACGUUGC", "self-splicing fitness (ln)": -3.71}
{"sequence": "CUCUAGCAAUAUUACGUGAU", "self-splicing fitness (ln)": -3.45}
{"sequence": "GUCAAGCAAUAUUACGAUGG", "self-splicing fitness (ln)": -4.88}

Form field: reported self-splicing fitness (ln) of GGAAAGCAAUAUUACGGCCU
-1.71

Form field: reported self-splicing fitness (ln) of CCGUAGCAAUAUUACGACAA
-3.54

Form field: reported self-splicing fitness (ln) of UUUAAGCAAUAUUACGCAAA
-1.59

Form field: reported self-splicing fitness (ln) of AUAAAGCAAUAUUACGGCUC
0.203

Form field: reported self-splicing fitness (ln) of ACAGAGCAAUAUUACGCGCA
-3.09

Form field: reported self-splicing fitness (ln) of AGACAGCAAUAUUACGUACA
-0.745

Form field: reported self-splicing fitness (ln) of UUACAGCAAUAUUACGAAGU
-3.35

Form field: reported self-splicing fitness (ln) of AGUAAGCAAUAUUACGUACU
-2.29

Form field: reported self-splicing fitness (ln) of GUCUAGCAAUAUUACGAUUC
-0.168

Form field: reported self-splicing fitness (ln) of AGGGAGCAAUAUUACGUUUA
-2.68

Form field: reported self-splicing fitness (ln) of ACUCAGCAAUAUUACGGCUC
-0.59

Form field: reported self-splicing fitness (ln) of UUAAAGCAAUAUUACGACCU
-0.0595

###

Each entry below lists one item and its recorded self-splicing fitness (ln) value.
Experiment: self-splicing fitness, log relative to wild type (ln ratio); higher = more splicing; Tetrahymena group I intron in knt gene, E. coli kanamycin selection, DiMSum; sequences stand for … in CUCUCU…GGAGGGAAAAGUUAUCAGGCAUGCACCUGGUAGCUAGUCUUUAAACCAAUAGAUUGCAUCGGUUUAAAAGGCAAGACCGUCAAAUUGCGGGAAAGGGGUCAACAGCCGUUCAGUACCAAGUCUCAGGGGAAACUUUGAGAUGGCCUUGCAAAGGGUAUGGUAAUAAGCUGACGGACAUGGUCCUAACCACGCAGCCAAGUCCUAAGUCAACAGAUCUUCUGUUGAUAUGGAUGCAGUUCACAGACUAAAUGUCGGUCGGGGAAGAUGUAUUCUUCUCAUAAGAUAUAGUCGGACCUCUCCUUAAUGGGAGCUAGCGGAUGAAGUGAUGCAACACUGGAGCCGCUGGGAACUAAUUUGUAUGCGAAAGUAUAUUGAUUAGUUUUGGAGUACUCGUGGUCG
Details: 30 °C
A bare number is all that is needed in reply.

{"sequence": "CCUGAGCAAUAUUACGGUCG", "self-splicing fitness (ln)": -3.95}

Form field: reported self-splicing fitness (ln) of AGUGAGCAAUAUUACGAACC
-0.739

Form field: reported self-splicing fitness (ln) of UCUAAGCAAUAUUACGCUUC
-3.47

Form field: reported self-splicing fitness (ln) of AAGGAGCAAUAUUACGAUCA
-1.18

###

Each entry below lists one item and its recorded self-splicing fitness (ln) value.
Test: self-splicing fitness, log relative to wild type (ln ratio); higher = more splicing; Tetrahymena group I intron in knt gene, E. coli kanamycin selection, DiMSum; sequences stand for … in CUCUCU…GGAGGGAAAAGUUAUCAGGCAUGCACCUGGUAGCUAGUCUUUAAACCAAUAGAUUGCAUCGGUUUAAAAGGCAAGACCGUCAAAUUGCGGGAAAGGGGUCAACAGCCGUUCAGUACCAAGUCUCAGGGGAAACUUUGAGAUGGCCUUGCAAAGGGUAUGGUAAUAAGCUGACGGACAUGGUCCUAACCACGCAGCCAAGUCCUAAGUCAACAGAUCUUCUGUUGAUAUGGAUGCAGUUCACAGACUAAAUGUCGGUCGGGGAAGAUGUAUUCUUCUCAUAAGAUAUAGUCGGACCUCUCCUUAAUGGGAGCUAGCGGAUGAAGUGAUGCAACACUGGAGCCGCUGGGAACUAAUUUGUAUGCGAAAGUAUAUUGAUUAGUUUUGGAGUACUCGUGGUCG
Settings: 30 °C
A bare number is all that is needed in reply.

Use these answered entries as a reference point.
{"sequence": "CUUCAGCAAUAUUACGCAUU", "self-splicing fitness (ln)": -3.11}
{"sequence": "CCGAAGCAAUAUUACGUUCA", "self-splicing fitness (ln)": -2.76}
{"sequence": "ACUAAGCAAUAUUACGAAAA", "self-splicing fitness (ln)": -2.26}
{"sequence": "CAUAAGCAAUAUUACGCGAG", "self-splicing fitness (ln)": -1.99}
{"sequence": "AUAAAGCAAUAUUACGGAGU", "self-splicing fitness (ln)": -0.717}

Form field: reported self-splicing fitness (ln) of GGACAGCAAUAUUACGCGGU
-4.03

Form field: reported self-splicing fitness (ln) of GCUAAGCAAUAUUACGAAAA
-1.27

Form field: reported self-splicing fitness (ln) of GCAUAGCAAUAUUACGUAAC
-2.24

###

Test: self-splicing fitness, log relative to wild type (ln ratio); higher = more splicing; Tetrahymena group I intron in knt gene, E. coli kanamycin selection, DiMSum; sequences stand for … in CUCUCU…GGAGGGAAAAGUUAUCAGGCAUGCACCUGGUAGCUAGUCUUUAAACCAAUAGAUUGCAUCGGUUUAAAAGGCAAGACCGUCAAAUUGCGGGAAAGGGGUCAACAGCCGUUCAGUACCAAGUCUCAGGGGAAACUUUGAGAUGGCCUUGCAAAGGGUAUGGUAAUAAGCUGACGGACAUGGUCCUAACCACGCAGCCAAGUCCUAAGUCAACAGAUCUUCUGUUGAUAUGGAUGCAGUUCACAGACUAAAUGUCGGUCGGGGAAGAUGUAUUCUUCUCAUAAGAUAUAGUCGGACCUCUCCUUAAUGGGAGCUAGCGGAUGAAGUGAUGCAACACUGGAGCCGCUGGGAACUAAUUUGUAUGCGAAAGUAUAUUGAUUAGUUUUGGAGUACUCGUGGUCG
Settings: 37 °C
measured_endpoint: self-splicing fitness (ln)
A bare number is all that is needed in reply.

Use these answered entries as a reference point.
{"sequence": "CCUGAGCAAUAUUACGCGCG", "value_measured": -3.29}
{"sequence": "CUUCAGCAAUAUUACGGGUU", "value_measured": -2.49}

Form field: reported self-splicing fitness (ln) of UGCAAGCAAUAUUACGUAUA
-0.379

Form field: reported self-splicing fitness (ln) of CCCCAGCAAUAUUACGGAAA
-1.64

###

Assay: self-splicing fitness, log relative to wild type (ln ratio); higher = more splicing; Tetrahymena group I intron in knt gene, E. coli kanamycin selection, DiMSum; sequences stand for … in CUCUCU…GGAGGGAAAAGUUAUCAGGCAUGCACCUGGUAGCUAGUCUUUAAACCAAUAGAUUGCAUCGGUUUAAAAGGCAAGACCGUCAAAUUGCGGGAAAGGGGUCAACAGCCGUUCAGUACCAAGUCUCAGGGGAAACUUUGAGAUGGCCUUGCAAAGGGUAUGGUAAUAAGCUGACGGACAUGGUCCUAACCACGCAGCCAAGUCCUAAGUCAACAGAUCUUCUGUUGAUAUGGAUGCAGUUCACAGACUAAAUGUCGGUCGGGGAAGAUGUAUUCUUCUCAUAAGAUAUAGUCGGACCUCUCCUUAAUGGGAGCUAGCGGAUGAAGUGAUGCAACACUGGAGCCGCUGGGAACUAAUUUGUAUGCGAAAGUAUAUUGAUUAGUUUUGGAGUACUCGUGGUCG
Conditions: 30 °C
Each entry below lists one item and its recorded self-splicing fitness (ln) value.
A bare number is all that is needed in reply.

Use these answered entries as a reference point.
{"sequence": "UCCAAGCAAUAUUACGCACC", "self-splicing fitness (ln)": -4.36}
{"sequence": "GCUUAGCAAUAUUACGCGCA", "self-splicing fitness (ln)": -1.37}
{"sequence": "ACCAAGCAAUAUUACGGUCU", "self-splicing fitness (ln)": -2.13}
{"sequence": "AUGGAGCAAUAUUACGUAAA", "self-splicing fitness (ln)": -3.85}

Form field: reported self-splicing fitness (ln) of GUAGAGCAAUAUUACGCGUU
-0.368
